System: IGROV1 ovarian
Assay: NCI tumour cell line growth inhibition, 48 h

>  <MOLECULE>
O=C(/C=C/c1ccccc1O)c1ccc([N+](=O)[O-])cc1

>  <INEQUALITY_SIGN>
=

>  <TGI, µM>
26.3

$$$$
>  <MOLECULE>
CN(C)CCNC(=O)c1cc(Cl)cc2cc3ccccc3nc12

>  <INEQUALITY_SIGN>
=

>  <TGI, µM>
8.32

$$$$
>  <MOLECULE>
O=c1[nH]c(=O)n(C2CC(O)C(CO)O2)cc1C(F)(C(F)(F)F)C(F)(F)F (stereo not given)

>  <INEQUALITY_SIGN>
>

>  <TGI, µM>
100

$$$$
>  <MOLECULE>
NC(CCOCCP(=O)(O)CCC1C=CC=CC1)C(=O)O (stereo not given)

>  <INEQUALITY_SIGN>
>

>  <TGI, µM>
100

$$$$
>  <MOLECULE>
O=C1c2cccnc2C(=O)c2c1c(C(=O)OCCN1CCCCC1)c1ccccn21

>  <INEQUALITY_SIGN>
=

>  <TGI, µM>
2.94

$$$$
>  <MOLECULE>
CCCCN1C(=O)c2c(Br)sc(Br)c2C1=O

>  <INEQUALITY_SIGN>
>

>  <TGI, µM>
100

$$$$
>  <MOLECULE>
CCOc1ccc(/C=C/c2cc(OC)c(OC)c(OC)c2)cc1

>  <INEQUALITY_SIGN>
>

>  <TGI, µM>
93.8

$$$$
>  <MOLECULE>
CC(C)(Oc1ccc(Cl)cc1)C(=O)N(C(=O)N1CCCCC1)c1ccccc1

>  <INEQUALITY_SIGN>
=

>  <TGI, µM>
22.3

$$$$
>  <MOLECULE>
COC(=O)c1ccccc1CC1Cc2cc3c(cc2C1=O)CCC3 (stereo not given)

>  <INEQUALITY_SIGN>
>

>  <TGI, µM>
100

$$$$
>  <MOLECULE>
CC(=O)OCC1OC(OC2C(COC(C)=O)OC(Sc3ccccc3C)C(OC(C)=O)C2OC(C)=O)C(OC(C)=O)C(OC(C)=O)C1OC(C)=O (stereo not given)

>  <INEQUALITY_SIGN>
>

>  <TGI, µM>
100

$$$$

* * *

Listing: TGI of selected molecules
System: IGROV1 ovarian
Test: NCI tumour cell line growth inhibition, 48 h
QUANTITY_KIND: TGI (µM)

>  <STRUCTURE_SMILES>
CN(C)Cc1cc(C(=O)/C=C/c2ccc(Cl)c(Cl)c2)cc(CN(C)C)c1O

>  <QUANTITY_KIND>
TGI

>  <INEQUALITY_SIGN>
=

>  <ENDPOINT_RESULT>
12.4

$$$$
>  <STRUCTURE_SMILES>
Cc1ccc(/C=C(\NC(=O)c2ccccc2)c2nc3ccccc3[nH]2)cc1

>  <QUANTITY_KIND>
TGI

>  <INEQUALITY_SIGN>
>

>  <ENDPOINT_RESULT>
100

$$$$
>  <STRUCTURE_SMILES>
C=C1C[C@@H]2O[C@H]3[C@H]4[C@@H](C[C@@H](C)[C@@H](OC(C)=O)[C@H]42)[C@@H](C)CO[C@@]3(C)[C@H](OC(=O)CCCCCCC)C[C@H]1O

>  <QUANTITY_KIND>
TGI

>  <INEQUALITY_SIGN>
=

>  <ENDPOINT_RESULT>
36

$$$$
>  <STRUCTURE_SMILES>
COc1ccc2c(=O)cc(-c3ccc(OC)c(OC)c3OC)oc2c1

>  <QUANTITY_KIND>
TGI

>  <INEQUALITY_SIGN>
>

>  <ENDPOINT_RESULT>
100

$$$$
